system: LNA-loaded hepatocytes; experiment: Metal-induced lipid peroxidation (MDA) in LNA-loaded hepatocytes; assay type: cell-based, Wistar rats; conditions: Rattus norvegicus, Hepatocyte, FeSO4-induced; LNA-loaded cells; 100 μM; read-out: IC50 of lipid peroxidation inhibition
observable: pIC50
Remember, pIC50 is on a log scale: it is -log10 of the molar concentration.

Req: Please give the measured pIC50 for this molecule: COc1cc(C2Oc3cc([C@H]4Oc5cc(O)cc(O)c5C(=O)[C@@H]4O)ccc3OC2CO)ccc1O (stereo partly shown)
Resp: 4.10

----------
test system: normal hepatocytes; assay: Metal-induced lipid peroxidation (MDA) in normal cultured hepatocytes; type: cell-based, Wistar rats; settings: Rattus norvegicus, Hepatocyte, VCl3-induced; normal hepatocytes; 100 μM; read-out: IC50 of lipid peroxidation inhibition
observable: IC50 (µM)
Write the value in µM as a bare number.

Req: Please give the measured IC50 for this molecule: COc1cc(C2Oc3cc([C@H]4Oc5cc(O)cc(O)c5C(=O)[C@@H]4O)ccc3OC2CO)ccc1O (stereo partly shown) [Sylibin, sylibin]
Resp: 10.8
